The measured values listed here are drawn from patent US6548715B1.

# Tested on: vitamin D-deficient chicks
# test.summary: Calcemic effect in vitamin D-deficient chicks (serum calcium)
# Type: in vivo, chick
# condition.parameters: % of the activity of 1α,25-(OH)2D3 at 50% of its activity (B50); vitamin D-deficient chicks injected 10 consecutive days
Use 0.2% as the dividing line for Ca serum chick, with the line itself on the met side and lower values as not met.

Given CCC(O)(C=CC=CC(C)C1CCC2C(=CC=C3CC(O)CC(O)C3)CCCC21C)CC (stereo not drawn) [Compound 50] , state whether its Ca serum chick is at least 0.2%.
not met

Given C=C1/C(=C\C=C\[C@@H]2CC[C@](C)(CCCCC(O)(CC)CC)C2(C)C)C[C@@H](O)C[C@@H]1O [Compound 38] , state whether its Ca serum chick is at least 0.2%.
met

Given CC(CC#CC(C)(C)O)C1CCC2C(=CC=C3CC(O)CC(O)C3)CCCC21C (stereo not drawn) [Compound 46] , state whether its Ca serum chick is at least 0.2%.
met
